# recorded conditions: in methanol, 313.16 K
measured attribute: solubility (mole fraction)
# print the numeric value only

Request: What value of solubility (mole fraction) has been reported for the following compound? Cc1nc2n(c(=O)c1CCN1CCC(c3noc4cc(F)ccc34)CC1)CCCC2
Result: 0.0083

---

# recorded conditions: in methanol, 293.15 K
measured attribute: solubility (mole fraction)
Give your answer as a number; write no unit.

Request: What measured solubility (mole fraction) goes with Cc1nc2n(c(=O)c1CCN1CCC(c3noc4cc(F)ccc34)CC1)CCCC2 ?
Result: 0.00363

---

# recorded conditions: in water, 288.16 K
measured attribute: solubility (mole fraction)
Write the number on its own, no unit after it.

Request: Which solubility (mole fraction) is listed for Cc1nc2n(c(=O)c1CCN1CCC(c3noc4cc(F)ccc34)CC1)CCCC2 ?
Result: 6.24e-08

The measurements presented in this section are drawn from BigSolDB 2.1.
